System: U2OS
Experiment: cell viability relative to DMSO; higher = less toxic
Details: 72 h; 1 nM
Kindly state cell viability for each of the entries shown.
Reply with just the number (in %).

GET /values?readout=cell viability&item= CC(C)(C)N1CCC(c2ccccc2)(c2ccccc2)CC1 91.9

Which cell viability is reported for this compound? CCO[C@@H](Cc1ccc(OCCn2c(C)ccc2-c2ccc(SC)cc2)cc1)C(=O)O 102

So what's the measured cell viability for this one? CN(c1nccc(=O)[nH]1)C1CCN(c2nc3ccccc3n2Cc2ccc(F)cc2)CC1 101

May I ask what cell viability has been recorded for O=C(NCCCN1CCOCC1)c1cnn2c(-c3ccccc3)cc(-c3ccccc3)nc12 ? 103

Requested read-out: cell viability. Entry: O=S(=O)(O)CCSSCCS(=O)(=O)O 104

Return reported cell viability; argument: Cn1nnc(-c2ccc(-c3ccc(N4C[C@H](CO)OC4=O)cc3F)cn2)n1 101

Looking for the measured cell viability of CCOc1nc2cccc(C(=O)OCc3oc(=O)oc3C)c2n1Cc1ccc(-c2ccccc2-c2noc(=O)[nH]2)cc1 , can you help? 98.7

Report cell viability for CCn1c(-c2nonc2N)nc2cnc(Oc3cccc(NC(=O)c4ccc(OCCN5CCOCC5)cc4)c3)cc21 please. 97.5

Recorded cell viability for CCn1c(-c2nonc2N)nc2cncc(CNC3CCNCC3)c21 , please? 93.9

* * *

Test system: HepG2
Assay: drug sensitivity score (DSS) for viability; higher = more toxic; extreme values may be limits of the assay
Settings: 72 h
property_measured: drug sensitivity score
Just the number, please, no unit after it.

For C[C@@H]1C[C@H]2[C@@H]3CCC4=CC(=O)C=C[C@]4(C)[C@@]3(F)[C@@H](O)C[C@]2(C)[C@@]1(O)C(=O)COP(=O)(O)O [DEXAMETHASONE SODIUM PHOSPHATE] , what is its reported drug sensitivity score? 0

So what does the record say about drug sensitivity score for COc1cn(-c2ccc(-n3cccn3)cc2F)nc(-c2ccnn2-c2ccccc2)c1=O [TAK-063] ? 0

Return reported drug sensitivity score; argument: O=C1c2c(O)cc(O)cc2O[C@H](c2cc(O)c(O)c(O)c2)[C@H]1O [dihydromyricetin] 0

Given the compound O=C(NOCCO)c1cc(CN2OCCCC2=O)c(F)c(F)c1Nc1ccc(I)cc1F , what is its reported drug sensitivity score? 26.2

Entry NS(=O)(=O)NCc1csc2ccccc12 : reported drug sensitivity score = ? 0

Quick one: drug sensitivity score for COc1ccc2cc1Oc1ccc(cc1)C[C@H]1c3cc(c(OC)cc3CCN1C)Oc1c(OC)c(OC)cc3c1[C@H](C2)N(C)CC3 [tetrandrine] ? 2.1

For the compound CCCNC(=O)NS(=O)(=O)c1ccc(Cl)cc1 [chlorpropamide] , what drug sensitivity score is on record? 0

// drug sensitivity score lookup, key: CN1CCN(CCCN2c3ccccc3Sc3ccc(Cl)cc32)CC1 [prochlorperazine] 1.9

* * *

Test system: Calu-3
Assay: relative viability EC50 (midpoint between 100% and the lowest measured viability); higher = less toxic
Conditions: 72 h
property_measured: relative viability EC50

Entry under review: O=C(CCc1ccc(O)cc1)c1c(O)cc(O)cc1O . Reported relative viability EC50? > 10 µM

Entry under review: O=c1[nH]c(=O)n([C@H]2C[C@H](O)[C@@H](CO)O2)cc1I . Reported relative viability EC50? > 10 µM

Consider the molecule shown here: O=C(N[C@@H]1Cc2ccccc2N(C[C@@H](O)CO)C1=O)c1cc2cc(Cl)sc2[nH]1 What is its recorded relative viability EC50? > 10 µM

Reference for the values: the supplement of paper PMC13380429
